ASSAY: Solubility of the compound of formula 1 in various solvents (HPLC)
Assay type: physicochemical
EXPERIMENTAL_CONDITIONS: methanol, organic solvent or mixture, thermodynamic from solid, Methanol, room temperature; read-out: Solubility
MEASURE_NAME: solubility at 12 h

Query :: Could you tell me which solubility at 12 h is on file for "Cc1c(N)cccc1Cn1ccc(OCCc2cccs2)cc1=O" ?
Result :: < 10000 µg/mL

* * *

ASSAY: Solubility of the compound of formula 1 in various solvents (HPLC)
Format: physicochemical
EXPERIMENTAL_CONDITIONS: water, thermodynamic from solid, distilled water / water (neutral); read-out: Solubility in water
MEASURE_NAME: solubility at 12 h (µg/mL)
Respond with the bare value in µg/mL.

Query :: Which solubility at 12 h is reported for this compound? "Cc1c(N)cccc1Cn1ccc(OCCc2cccs2)cc1=O"
Result :: 2.5

* * *

ASSAY: Solubility in distilled water (Experimental Example 6)
Format: physicochemical
EXPERIMENTAL_CONDITIONS: pH 6.8, thermodynamic from solid; distilled water, room temperature, 12 hours
MEASURE_NAME: solubility at 12 h
# answer = value followed by unit

Query :: Which measured solubility at 12 h value corresponds to Cc1c(N)cccc1Cn1ccc(OCCc2cccs2)cc1=O [compound of formula 1] ?
Result :: 2.5 µg/mL

* * *

ASSAY: Solubility of the compound of formula 1 in various solvents (HPLC)
Assay type: physicochemical
EXPERIMENTAL_CONDITIONS: water, thermodynamic from solid, Water, room temperature; read-out: Solubility
MEASURE_NAME: solubility at 12 h (µg/mL)
All answers are understood in µg/mL, so give the number only.

Query :: Could you share which solubility at 12 h value was measured for Cc1c(N)cccc1Cn1ccc(OCCc2cccs2)cc1=O [compound of formula 1] ?
Result :: 2

* * *

ASSAY: Solubility of the compound of formula 1 in various solvents (HPLC)
Assay type: physicochemical
EXPERIMENTAL_CONDITIONS: dichloromethane, organic solvent or mixture, thermodynamic from solid, Dichloromethane, room temperature; read-out: Solubility
MEASURE_NAME: solubility at 12 h

Query :: Request the reported solubility at 12 h associated with Cc1c(N)cccc1Cn1ccc(OCCc2cccs2)cc1=O [compound of formula 1]
Result :: > 50 mg/mL
